Data credit: the supplement of paper PMC7877785

assay: self-splicing fitness, log relative to wild type (ln ratio); higher = more splicing; Tetrahymena group I intron in knt gene, E. coli kanamycin selection, DiMSum; sequences stand for … in CUCUCU…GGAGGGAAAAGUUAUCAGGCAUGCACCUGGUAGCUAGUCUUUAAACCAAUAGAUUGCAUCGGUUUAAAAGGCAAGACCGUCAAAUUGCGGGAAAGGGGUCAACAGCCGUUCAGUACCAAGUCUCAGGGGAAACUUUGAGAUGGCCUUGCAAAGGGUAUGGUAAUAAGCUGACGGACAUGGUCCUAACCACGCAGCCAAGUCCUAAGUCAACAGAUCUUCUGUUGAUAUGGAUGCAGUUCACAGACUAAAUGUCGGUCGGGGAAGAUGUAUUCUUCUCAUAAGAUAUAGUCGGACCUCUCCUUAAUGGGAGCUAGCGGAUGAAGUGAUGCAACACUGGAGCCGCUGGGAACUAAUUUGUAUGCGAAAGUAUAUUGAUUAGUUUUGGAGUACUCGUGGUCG; conditions: 30 °C;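 further: selection with 25 µg/mL kanamycin versus none on LB agar overnight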
Recorded self-splicing fitness (ln) by entry

entry_sequence | self-splicing fitness (ln)
AACUAGCAAUAUUACGAUAA | -1.41
UACUAGCAAUAUUACGGCCA | -0.179
GAGUAGCAAUAUUACGUGGC | -2.33
GAAGAGCAAUAUUACGUGCA | -2.38
CCUUAGCAAUAUUACGGCUA | -2.52
CCAUAGCAAUAUUACGAGGC | -3.03
AACUAGCAAUAUUACGUGUG | -1.47
ACGGAGCAAUAUUACGUUUG | -2.3
CGAGAGCAAUAUUACGCCGU | -2.28
CCACAGCAAUAUUACGCUCG | -1.34
UCUGAGCAAUAUUACGUUCU | -3.98
UCGAAGCAAUAUUACGGGCG | 0.0324
UUUUAGCAAUAUUACGCCCG | -0.629
UCUCAGCAAUAUUACGUUAG | -3.98
ACAAAGCAAUAUUACGGUGG | -3.64
GUAAAGCAAUAUUACGGUUU | -0.83
AACGAGCAAUAUUACGUUCG | -3
GUGUAGCAAUAUUACGCGAC | -1.33
GCCAAGCAAUAUUACGGUCU | -2.26
GAGUAGCAAUAUUACGAUGU | -2.23
GAGGAGCAAUAUUACGUGGU | -4.05
UGUUAGCAAUAUUACGACCU | -0.58
GAAUAGCAAUAUUACGUAUU | -2.18
CCCCAGCAAUAUUACGGAUC | -2.89
CGCAAGCAAUAUUACGAAAU | -3.48
AGGCAGCAAUAUUACGCCAU | -2.27
AAAUAGCAAUAUUACGCGUG | -1.11
CGCUAGCAAUAUUACGCGAU | -3.59
CUCCAGCAAUAUUACGACAC | -2.74
ACGUAGCAAUAUUACGGUGU | -2.43
GGUAAGCAAUAUUACGAUAG | -3.14
GCUAAGCAAUAUUACGCGAA | -2.87
GGAUAGCAAUAUUACGCGAG | -1.38
CAGUAGCAAUAUUACGCCUU | -1.35
GAGUAGCAAUAUUACGGACU | -0.25
AAGCAGCAAUAUUACGGCCA | -0.775
UGUCAGCAAUAUUACGACGU | -1.31
ACUGAGCAAUAUUACGAUAC | -1.07
CGCCAGCAAUAUUACGAUAU | -3.92
ACCGAGCAAUAUUACGAUAA | -3.72
UUGAAGCAAUAUUACGGAGG | -0.866
GCUCAGCAAUAUUACGGAGU | -4.36
UCAUAGCAAUAUUACGUGGU | -3.42
AUCGAGCAAUAUUACGGAUC | -3.66
CCCCAGCAAUAUUACGCAUA | -2.67
CUUGAGCAAUAUUACGGGAC | -3.63
AACUAGCAAUAUUACGCCCU | 0.324
UUGCAGCAAUAUUACGUUCA | -0.896
AUUAAGCAAUAUUACGAGCG | -0.827
GCUUAGCAAUAUUACGGUUU | -1.4
UCAGAGCAAUAUUACGGUAC | -2.06
